Entry source: patent US12655139B2

Molecular target: hRIPK1 (aa 1-375) fusion protein (Homo sapiens, UniProt Q13546)
Construct: hRIPK1 (aa 1-375) fusion protein
Test: ADP-Glo kinase assay, RIPK1 autophosphorylation
Assay type: biochemical
Conditions: Table 1
Where a name gives a salt, the structure may show the parent alone.
reported_metric: pIC50
// pIC50 is dimensionless: -log10 of concentration (M)

Entry under review: N#Cc1cncc([C@@H]2CCON2C(=O)C2(F)CCN(c3nccc(C(N)=O)n3)CC2(F)F)c1 (some centres unmarked) . Reported pIC50?
7.61

Entry under review: Cc1coc([C@@H]2CCON2C(=O)C2CCN(c3cc(C(N)=O)ncn3)CC2)c1 [compound 153, 2,2,2-trifluoroacetate salt] . Reported pIC50?
6.99

Entry under review: `Cc1cc([C@@H]2CCON2C(=O)C2CCN(c3cc(C#N)ncn3)CC2)co1` . Reported pIC50?
7.68

Entry under review: `Cc1ccc([C@@H]2CCON2C(=O)C2CCN(c3nccc(C#N)n3)CC2)cn1` . Reported pIC50?
7.62

Entry under review: `NC(=O)c1nc(N2CCC(C(=O)N3OCC[C@H]3c3ccccn3)CC2)ncc1F` . Reported pIC50?
7.65

Entry under review: Cc1ccc(C2CCON2C(=O)C2CCN(c3ncc(C)c(C(N)=O)n3)CC2F)cn1 (single isomer, unassigned) [Ex. 185] . Reported pIC50?
6.53

Entry under review: `Cc1cc([C@@H]2CCON2C(=O)C2CCN(c3nccc(C#N)n3)CC2)co1` . Reported pIC50?
7.70

Entry under review: `CC1(C(=O)N2OCC[C@H]2c2cncnc2)CCN(c2nccc(C(N)=O)n2)CC1` . Reported pIC50?
7.41

Entry under review: `Cc1ccc([C@@H]2CCON2C(=O)C2CCN(c3ncnc(C(N)=O)c3F)CC2)cn1` . Reported pIC50?
7.18

Entry under review: `Cc1cnc(N2CCC(C(=O)N3OCC[C@H]3c3cnccn3)CC2)nc1C(N)=O` . Reported pIC50?
7.65

Entry under review: `N#Cc1cncc([C@H]2CCON2C(=O)C2CCN(c3nccc(C(N)=O)n3)CC2)c1` . Reported pIC50?
4.73

Entry under review: `Cc1cnc([C@@H]2CCON2C(=O)C2CCN(c3cc(C#N)ncn3)CC2)cn1` . Reported pIC50?
7.83

Entry under review: `Cc1cncc([C@@H]2CCON2C(=O)C2CCN(c3nccc(C#N)n3)CC2)n1` . Reported pIC50?
7.76

Entry under review: `Cc1cncc([C@@H]2CCON2C(=O)C2CCN(c3ncc(C)c(C(N)=O)n3)CC2)n1` . Reported pIC50?
7.62

Entry under review: `N#Cc1cncc([C@@H]2CCON2C(=O)C2CCN(c3nccc(C#N)n3)CC2)c1` . Reported pIC50?
7.61

Entry under review: `Cc1nc([C@@H]2CCON2C(=O)C2CCN(c3ncc(F)c(C(N)=O)n3)CC2)cs1` . Reported pIC50?
7.66

====

Target: hRIPK1 (aa 1-375) fusion protein (Homo sapiens, UniProt Q13546)
Construct: hRIPK1 (aa 1-375) fusion protein
Experiment: ADP-Glo kinase assay, RIPK1 autophosphorylation
Format: biochemical
Details: Table 1
reported_metric: pIC50
// pIC50 is dimensionless: -log10 of concentration (M)

Entry under review: `CC1(C(=O)N2OCC[C@H]2c2cncc(C#N)c2)CCN(c2nccc(C(N)=O)n2)CC1` . Reported pIC50?
7.63

Entry under review: `N#Cc1cncc([C@@H]2CCON2C(=O)C2CCN(c3cc(Cl)ncn3)CC2)c1` . Reported pIC50?
7.50

Entry under review: `N#Cc1ccnc(N2CCC(C(=O)N3OCC[C@H]3c3cncnc3)CC2)c1` . Reported pIC50?
7.18

Entry under review: `N#Cc1cc([C@@H]2CCON2C(=O)C2CCN(c3ncc(F)c(C(N)=O)n3)CC2)cs1` . Reported pIC50?
7.43

====

Give measured Kp at 2 h for each item. Keep answers brief.
Assay: Pharmacokinetic studies in mice, oral application
Type: in vivo
Settings: male, C57BL/6, brain / plasma; mouse, 2 h, oral 30 mg/kg; read-out: Mouse PK brain/blood ratio
// return just the number, without any unit appended

Entry under review: NC(=O)c1cc(N2CCC(C(=O)N3OCC[C@H]3c3cc(F)cc(F)c3)CC2)ncn1 [D, reference compound] . Reported Kp at 2 h?
1.1

Entry under review: N#Cc1cc(N2CCC(C(=O)N3N=CC[C@H]3c3cc(F)cc(F)c3)CC2)ncn1 [G, reference compound] . Reported Kp at 2 h?
1.5

Entry under review: N#Cc1cc(N2CCC(C(=O)N3OCC[C@H]3c3cc(F)cc(F)c3)CC2)ncn1 [A, reference compound] . Reported Kp at 2 h?
0.82

====

Biological target: hRIPK1 (aa 1-375) fusion protein (Homo sapiens)
Construct: hRIPK1 (aa 1-375) fusion protein
Test: ADP-Glo kinase assay, RIPK1 autophosphorylation
Type: biochemical
Details: Table 1
Counter-ions that a name gives are not always drawn.
Category | rule: reported IC50 within range, see bin 1 (below 20 nM), bin 2 (20 nM to below 40 nM), bin 3 (40 nM or more)

Lab log: NC(=O)c1cc(N2CCC(C(=O)N3OCCC3c3ccc4nccn4c3)CC2)ncn1 (racemic) [Example 015, TFA salt] — assign IC50 category
bin 3

Lab log: CCOC(=O)N1CC(NC(=O)c2ccnc(N3CCC(C(=O)N4OCC[C@H]4c4cncc(C#N)c4)CC3)n2)C1 [Ex. 088] — assign IC50 category
bin 2

Lab log: N#Cc1cncc([C@@H]2CCON2C(=O)C2CCN(c3cnc(C#N)cn3)CC2)c1 [Ex. 066] — assign IC50 category
bin 2

Lab log: N#Cc1cncc([C@@H]2CCON2C(=O)[C@H]2CCN(c3nccc(C(N)=O)n3)C[C@@H]2F)c1 [Ex. 093] — assign IC50 category
bin 1

Lab log: NC(=O)c1cc(N2CCC(C(=O)N3OCCC3c3cncc(CO)c3)CC2)ncn1 (racemic) [Ex. 032*, TFA salt] — assign IC50 category
bin 3

Lab log: COC(=O)c1ccnc(N2CCC(C(=O)N3OCC[C@H]3c3cncc(C#N)c3)CC2)n1 [Ex. 010] — assign IC50 category
bin 1

Lab log: N#Cc1cncc([C@@H]2CCON2C(=O)C2CCN(c3cc(Br)ncn3)CC2)c1 [Ex. 165] — assign IC50 category
bin 2

Lab log: N#Cc1cncc([C@@H]2CCON2C(=O)C2CCN(c3ncc(F)c(OCC(N)=O)n3)CC2)c1 [Ex. 035] — assign IC50 category
bin 3

Lab log: NC(=O)c1ccnc(N2CCC(C(=O)N3OCCC3c3cncc(F)c3)CC2)n1 (racemic) [Ex. 050*] — assign IC50 category
bin 2

Lab log: N#Cc1cncc([C@@H]2CCON2C(=O)C2CCN(c3cnc(C(N)=O)cn3)CC2)c1 [Ex. 072] — assign IC50 category
bin 2

Lab log: N#Cc1cc([C@@H]2CCON2C(=O)C2CCN(c3ncc(F)c(C(N)=O)n3)CC2)co1 [Ex. 167] — assign IC50 category
bin 2

Lab log: Cn1cc(C2CCON2C(=O)C2CCN(c3nccc(C(N)=O)n3)CC2)cn1 (racemic) [Ex. 046*] — assign IC50 category
bin 3

Lab log: Cc1ncc([C@@H]2CCON2C(=O)C2CCN(c3nccc(C(N)=O)n3)CC2)cc1F [compound 137] — assign IC50 category
bin 2

Lab log: N#Cc1cncc([C@@H]2CCON2C(=O)C2CCN(c3cnc(Cl)nc3C(=O)O)CC2)c1 [Ex. 121] — assign IC50 category
bin 3

Lab log: Cc1cc([C@@H]2CCON2C(=O)C2CCN(c3nccc(C(N)=O)n3)CC2)co1 [compound 110] — assign IC50 category
bin 1

Lab log: Cc1ncc([C@@H]2CCON2C(=O)C2CCN(c3cc(C#N)ncn3)CC2)cc1F [compound 138] — assign IC50 category
bin 2

====

Test: Pharmacokinetic studies in mice, intravenous application with non-serial sampling
Type: in vivo
Conditions: male, C57BL/6, brain, iv; mouse, 15 min after i.v. application of 3 mg/kg; read-out: brain levels
reported_metric: concentration at 15 min
Please make sure the unit comes right after the number.

Entry under review: `COc1cc(N2CCC(C(=O)N3OCC[C@H]3c3cc(F)cc(F)c3)CC2)ncn1` . Reported concentration at 15 min?
1580 ng/mL

====

Target: hRIPK1 (aa 1-375) fusion protein (Homo sapiens, UniProt Q13546)
Construct: hRIPK1 (aa 1-375) fusion protein
Sequence (Q13546 1-375): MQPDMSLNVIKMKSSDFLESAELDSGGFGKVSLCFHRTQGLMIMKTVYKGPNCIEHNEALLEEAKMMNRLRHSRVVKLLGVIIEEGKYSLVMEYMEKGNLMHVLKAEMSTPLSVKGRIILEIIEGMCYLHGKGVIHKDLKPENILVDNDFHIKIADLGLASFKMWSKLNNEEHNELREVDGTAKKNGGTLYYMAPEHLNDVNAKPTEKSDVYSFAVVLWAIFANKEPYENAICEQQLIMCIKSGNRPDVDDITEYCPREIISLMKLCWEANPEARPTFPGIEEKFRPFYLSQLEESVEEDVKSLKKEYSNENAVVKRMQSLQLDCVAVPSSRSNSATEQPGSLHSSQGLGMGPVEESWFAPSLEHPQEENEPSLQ
Assay: ADP-Glo kinase assay, RIPK1 autophosphorylation
Type: biochemical
Details: Table 1
Counter-ions that a name gives are not always drawn.
Give measured IC50 for each item. Keep answers brief.

Entry under review: NC(=O)c1cc(N2CCC(C(=O)N3OCC[C@H]3c3ccc(N)nc3)CC2)ncn1 (racemic) . Reported IC50?
0.0899 µM

Entry under review: `N#Cc1cncc([C@@H]2CCON2C(=O)C2CCN(c3cncc(C(N)=O)n3)CC2)c1` . Reported IC50?
0.0256 µM

Entry under review: N#Cc1ccnc(N2CCC(C(=O)N3OCCC3c3ccc4nccn4c3)CC2)n1 (racemic) [Example 014, TFA salt] . Reported IC50?
0.729 µM

Entry under review: `N#Cc1ccc([C@@H]2CCON2C(=O)C2CCN(c3nccc(C(N)=O)n3)CC2)nc1` . Reported IC50?
0.0816 µM

Entry under review: NC(=O)c1cc(N2CCC(C(=O)N3OCCC3C3CCCOC3)CC2)ncn1 (racemic) [Ex. 023*, TFA salt] . Reported IC50?
0.797 µM

Entry under review: `Cc1cnc(N2CCC(C(=O)N3OCC[C@H]3c3cncc(F)c3)CC2)nc1C(N)=O` . Reported IC50?
0.0137 µM

Entry under review: `N#Cc1cncc([C@@H]2CCON2C(=O)C2CCN(c3ncc(F)c(C(N)=O)n3)CC2)n1` . Reported IC50?
0.0211 µM

Entry under review: `N#Cc1cncc([C@@H]2CCON2C(=O)C2CCN(c3ncc(F)c(C#N)n3)CC2)c1` . Reported IC50?
0.0282 µM

Entry under review: `COc1nc(N2CCC(C(=O)N3OCC[C@H]3c3cncc(C)n3)CC2)ncc1F` . Reported IC50?
0.0214 µM

Entry under review: `COC(=O)c1ccnc(N2CCC(C)(C(=O)N3OCC[C@H]3c3cncc(C#N)c3)CC2)n1` . Reported IC50?
0.0107 µM

Entry under review: `Nc1nc(Cl)nc(N2CCC(C(=O)N3OCC[C@H]3c3cnccn3)CC2)n1` . Reported IC50?
0.00326 µM

Entry under review: `CC(C)(C)OC(=O)N1CC(NC(=O)c2ccnc(N3CCC(C(=O)N4OCC[C@H]4c4cncc(C#N)c4)CC3)n2)C1` . Reported IC50?
0.0529 µM

Entry under review: N#Cc1ccnc(N2CCC(C(=O)N3OCCC3c3ccc(N)nc3)CC2)n1 (racemic) . Reported IC50?
0.0315 µM

Entry under review: `COc1nc(N2CCC(C(=O)N3OCC[C@H]3c3cncnc3)CC2)ncc1F` . Reported IC50?
0.0204 µM

Entry under review: `N#Cc1cncc([C@@H]2CCON2C(=O)C2CCN(c3cc(F)ncn3)CC2)c1` . Reported IC50?
0.0234 µM

Entry under review: `Cc1ccc([C@@H]2CCON2C(=O)C2CCN(c3ncc(C)c(C(N)=O)n3)CC2)s1` . Reported IC50?
0.0156 µM

Entry under review: `Cc1c(F)cncc1[C@@H]1CCON1C(=O)C1CCN(c2nccc(C(N)=O)n2)CC1` . Reported IC50?
0.0819 µM

Entry under review: `N#Cc1cncc([C@@H]2CCON2C(=O)C2CCN(c3ncnc(C(N)=O)c3F)CC2)c1` . Reported IC50?
0.011 µM

Entry under review: `CC1(CCNC(=O)c2ccnc(N3CCC(C(=O)N4OCC[C@H]4c4cncc(C#N)c4)CC3)n2)CC1` . Reported IC50?
0.0281 µM

Entry under review: `NC(=O)c1ccnc(N2CCC(C(=O)N3OCC[C@H]3c3ccc(Cl)cn3)CC2)n1` . Reported IC50?
0.0161 µM

Entry under review: Cc1ccc([C@@H]2CCON2C(=O)C2CCN(c3cc(C(N)=O)ncn3)CC2)s1 (single isomer, unassigned) . Reported IC50?
0.022 µM

Entry under review: `N#Cc1cncc([C@@H]2CCON2C(=O)C2CCN(c3cncc(C#N)n3)CC2)c1` . Reported IC50?
0.0848 µM

Entry under review: `N#Cc1cc([C@@H]2CCON2C(=O)C2CCN(c3ncc(F)c(C(N)=O)n3)CC2)cnn1` . Reported IC50?
0.112 µM

Entry under review: `Cc1cc([C@@H]2CCON2C(=O)C2CCN(c3cc(C(N)=O)ncn3)CC2)co1` . Reported IC50?
0.0193 µM

Entry under review: `N#Cc1cncc([C@@H]2CCON2C(=O)C2CCN(c3ncc(F)c(N)n3)CC2)c1` . Reported IC50?
0.0501 µM

Entry under review: `N#Cc1ccnc(N2CCC(C(=O)N3OCC[C@H]3c3cncc(N4CCC4=O)c3)CC2)n1` . Reported IC50?
0.0425 µM

Entry under review: `N#Cc1cncc([C@@H]2CCON2C(=O)C2CCN(c3nccc(C(N)=O)n3)CC2)c1` . Reported IC50?
0.0238 µM

Entry under review: `CCOC(=O)c1nccc(N2CCC(C(=O)N3OCC[C@H]3c3cncc(C#N)c3)CC2)n1` . Reported IC50?
0.37 µM

Entry under review: `N#Cc1cncc([C@@H]2CCON2C(=O)C2(F)CCN(c3ncc(F)c(C(N)=O)n3)CC2)c1` . Reported IC50?
0.0208 µM

Entry under review: `N#Cc1cncc([C@@H]2CCON2C(=O)C2CCN(c3ncc(F)c(C(N)=O)n3)CC2)c1` . Reported IC50?
0.0147 µM

Entry under review: `N#Cc1cc([C@@H]2CCON2C(=O)C2CCN(c3nccc(C(N)=O)n3)CC2)cs1` . Reported IC50?
0.0454 µM

Entry under review: `N#Cc1ccc([C@@H]2CCON2C(=O)C2CCN(c3cc(C(N)=O)ncn3)CC2)nc1` . Reported IC50?
0.364 µM
